B1: ZNF511 (parent)
chain: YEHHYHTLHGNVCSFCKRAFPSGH

# Variants of: B1
# assay.overview: protein stability index of a GFP-peptide fusion (GPS, HEK-293T) (PSI 1-6); higher = more stable;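 note: lentivirally expressed fusions sorted by FACS into six bins by GFP to DsRed ratio, PSI derived from sequencing read proportions per bin multiplied by bin number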
# measurement.setup: c terminus: a fixed tail appended
protein stability index for assorted variants

Example variants with recorded protein stability index:
mutant.code	protein stability index
T7E	2.07
K17W	1.3
E2L	1.65
Y5L	2.48
H9Q	2.19

Exam item: Write down protein stability index measured for item N11C
Marked response: 2.73

Exam item: Write down protein stability index measured for item C13T
Marked response: 1.97
